The measurements presented in this section are drawn from patent US8367658B2.

study-system: CHK1 (Homo sapiens, UniProt O14757)
Sequence (O14757 1-476): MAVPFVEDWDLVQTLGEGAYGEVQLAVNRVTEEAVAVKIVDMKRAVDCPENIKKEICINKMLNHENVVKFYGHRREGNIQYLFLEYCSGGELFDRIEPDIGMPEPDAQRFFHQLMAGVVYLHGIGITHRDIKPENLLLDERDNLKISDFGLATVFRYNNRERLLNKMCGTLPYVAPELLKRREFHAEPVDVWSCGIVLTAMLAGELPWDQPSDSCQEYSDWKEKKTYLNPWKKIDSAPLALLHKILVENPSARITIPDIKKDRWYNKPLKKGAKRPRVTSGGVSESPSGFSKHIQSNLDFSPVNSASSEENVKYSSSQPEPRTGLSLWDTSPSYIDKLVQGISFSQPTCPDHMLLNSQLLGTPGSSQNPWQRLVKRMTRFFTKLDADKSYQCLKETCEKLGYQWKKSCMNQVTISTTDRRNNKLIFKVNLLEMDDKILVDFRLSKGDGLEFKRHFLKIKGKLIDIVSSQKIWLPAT
assay-procedure: CHK1 kinase function inhibition assay (DELFIA, phosphorylation of a CDC25C peptide)
condition-label: CHK1 1 nM, ATP 30 μM, 30 minutes at room temperature
value-type: IC50

>>> print(df.to_string())
                                    molecule            result
 0  N#Cc1cnc(Nc2cc(NCC3CCCNC3)c(-n3ccc(CN4CCOCC4)c3)cn2)cn1 (centres unmarked) [Compound Y-062]          ≤ 100 nM
 1  COC(=O)c1cnc(Nc2cnc(C#N)cn2)cc1NCC1(F)CCNCC1 [Compound Y-083]          ≤ 100 nM
 2  CC1(CNc2cc(Nc3cnc(C#N)cn3)ncn2)CCNCC1 [Compound Z-028]  1000 to 10000 nM
 3  N#Cc1cnc(Nc2cc(NCC3CCNCC3)c(C(=O)Nc3cccc(N4CCOCC4)c3)cn2)cn1 [Compound Y-099]          ≤ 100 nM
 4  N#Cc1cnc(Nc2cc(N3CCOC(CN)C3)ncn2)cn1 (centres unmarked) [Compound Z-014]  1000 to 10000 nM
 5  N#Cc1cnc(Nc2cc(NCC3CCNCC3)c(C#CCO)cn2)cn1 [Compound Y-145]          ≤ 100 nM
 6  COc1cccc(NC(=O)c2cnc(Nc3cnc(C#N)cn3)cc2NCC2CCNCC2)c1 [Compound Y-096]          ≤ 100 nM
 7  N#Cc1cnc(Nc2cc(NCC3CCNCC3)c(C(=O)Nc3cccc(F)c3)cn2)cn1 [Compound Y-094]    100 to 1000 nM
 8  COc1ccc(-c2cnc(Nc3cnc(C#N)cn3)cc2NC2CCN(C)CC2)cc1 [Compound Y-114]          ≤ 100 nM
 9  COc1ccc(-c2cnc(Nc3cnc(C#N)cn3)cc2NCC2CCNCC2)cc1 [Compound Y-126]          ≤ 100 nM
10  COCCOc1ccc(-c2cnc(Nc3cnc(C#N)cn3)cc2NC[C@H]2CNCCO2)cc1 [Compound Y-157]          ≤ 100 nM
11  COCc1ccc(-c2cnc(Nc3cnc(C#N)cn3)cc2NC[C@@H]2CNCCO2)cc1 [Compound Y-148]          ≤ 100 nM
12  CS(=O)(=O)c1ccc(-c2cnc(Nc3cnc(C#N)cn3)cc2NCC2CCNCC2)cc1 [Compound Y-130]          ≤ 100 nM
13  CN1CCC(Nc2cc(Nc3cnc(C#N)cn3)ncc2Cl)CC1 [Compound Y-108]          ≤ 100 nM
14  CN(C)CC(=O)Nc1cnc(Nc2cnc(C#N)cn2)cc1NC1CC2CCC(C1)N2C (centres unmarked) [Compound Y-015]  1000 to 10000 nM
15  N#Cc1cnc(Nc2cc(NCC3CCNCC3)c(Cl)cn2)cn1 [Compound Y-124]          ≤ 100 nM
16  CCCN1C2CCC1CC(Nc1cc(Nc3cnc(C#N)cn3)ncc1C(=O)OC)C2 (centres unmarked) [Compound Y-079]          ≤ 100 nM
